Test system: NCI-H1395
assay-info: relative viability (nuclei count vs DMSO), 5 days (fraction); higher = more cells survive
condition-info: first compound 0.01581 µM
# Lookup of reported relative viability keyed by entry

Here's what some known entries look like.
>>> result("COc1cc2nccc(Oc3ccc(NC(=O)Nc4cc(C)on4)c(Cl)c3)c2cc1OC [Tivozanib] + COc1cc2c(Oc3ccc(NC(=O)C4(C(=O)Nc5ccc(F)cc5)CC4)cc3F)ccnc2cc1OCCCN1CCOCC1 [Foretinib] (partner 0.25 µM)")
1.01
>>> result("Nc1ccn([C@@H]2O[C@H](CO)[C@@H](O)[C@@H]2O)c(=O)n1 [Cytarabine] + Cc1nc(Nc2ncc(C(=O)Nc3c(C)cccc3Cl)s2)cc(N2CCN(CCO)CC2)n1 [Dasatinib] (partner 0.075 µM)")
0.34
>>> result("Nc1ccn([C@@H]2O[C@H](CO)[C@@H](O)[C@@H]2O)c(=O)n1 [Cytarabine] + CS(=O)(=O)CCNCc1ccc(-c2ccc3ncnc(Nc4ccc(OCc5cccc(F)c5)c(Cl)c4)c3c2)o1 [Lapatinib] (partner 2 µM)")
0.749

Per the records, this compound ( Nc1ccn([C@@H]2O[C@H](CO)[C@@H](O)[C@@H]2O)c(=O)n1 [Cytarabine] + Nc1nc2[nH]cc(CCc3ccc(C(=O)N[C@@H](CCC(=O)O)C(=O)O)cc3)c2c(=O)[nH]1 [Pemetrexed] (partner 0.2 µM) ) has relative viability equal to 0.566

Entry COc1cc2nccc(Oc3ccc(NC(=O)Nc4cc(C)on4)c(Cl)c3)c2cc1OC [Tivozanib] + O=C(CCCCCCC(=O)Nc1ccccc1)NO [Vorinostat] (partner 1 µM) , relative viability reported as 0.747

====

Reported relative viability by item:
Test system: NCI-H1793
assay-info: relative viability (nuclei count vs DMSO), 5 days (fraction); higher = more cells survive
condition-info: first compound 1.265 µM

Answered examples (2):
>>> result("Cc1sc2c(c1C)C(c1ccc(Cl)cc1)=N[C@@H](CC(=O)OC(C)(C)C)c1nnc(C)n1-2 [JQ1] + O=C(c1cc(Cc2n[nH]c(=O)c3ccccc23)ccc1F)N1CCN(C(=O)C2CC2)CC1 [Olaparib] (partner 8 µM)")
0.526
>>> result("Cc1sc2c(c1C)C(c1ccc(Cl)cc1)=N[C@@H](CC(=O)OC(C)(C)C)c1nnc(C)n1-2 [JQ1] + CC(=O)c1c(C)c2cnc(Nc3ccc(N4CCNCC4)cn3)nc2n(C2CCCC2)c1=O [Palbociclib] (partner 0.5 µM)")
0.335

For the next question, use this molecule.
Please fill in: relative viability reported for Cc1sc2c(c1C)C(c1ccc(Cl)cc1)=N[C@@H](CC(=O)OC(C)(C)C)c1nnc(C)n1-2 [JQ1] + Nc1ncn([C@H]2C[C@H](O)[C@@H](CO)O2)c(=O)n1 [Decitabine] (partner 2 µM) = 0.418

====

Test system: NCI-H2228
assay-info: relative viability (nuclei count vs DMSO), 5 days (fraction); higher = more cells survive
condition-info: first compound 0.000632 µM
readout-label: relative viability
Reply with just the number.

relative viability reported for this compound CC(=O)O[C@@]12CO[C@@H]1C[C@H](O)[C@@]1(C)C(=O)[C@H](O)C3=C(C)[C@@H](OC(=O)[C@H](O)[C@@H](NC(=O)OC(C)(C)C)c4ccccc4)C[C@@](O)([C@@H](OC(=O)c4ccccc4)[C@H]21)C3(C)C [Docetaxel] + Cc1nc(NC(=O)N2CCC[C@H]2C(N)=O)sc1-c1ccnc(C(C)(C)C(F)(F)F)c1 [Alpelisib] (partner 2 µM) : 0.243

Provenance of the data: the supplement of paper PMC10307832
